Data credit: patent US12686676B2

# assay.notes: Metabolic stability in human liver microsome; further: tested at 0.99 µM
# Assay type: in vitro ADME
# conditions.used: after 30 minutes with NADPH
Would you kindly list Metabolic stability (human), residual rate of the unchanged form for each of these molecules?

Consider the following illustrative entries.
• Cc1cc2c(cc1C#Cc1ncccc1S(=O)(=O)Nc1noc(C)c1Cl)C(C)(C)OC2 [Example 7] = 44%
• Cc1cc2c(cc1C#Cc1ncccc1S(=O)(=O)Nc1onc(C)c1C)C(C)(C)OC2 [Example 8] = 73%
• Cc1onc(NS(=O)(=O)c2cccnc2C#Cc2cc3c(cc2Cl)COC3)c1C [Example 6] = 56%

Incoming: Tell me Metabolic stability (human), residual rate of the unchanged form reported for Cc1cc2c(cc1C#Cc1ncccc1S(=O)(=O)Nc1noc(C)c1C)C(=O)OC2 [Example 4]
Outgoing: 49%

====

pIC50: −log10 of the molar value.
Reported pIC50, CYP2C9 (Homo sapiens, UniProt P11712).

Consider the following illustrative entries.
* Cc1cc2c(cc1C#Cc1ncccc1S(=O)(=O)Nc1noc(C)c1C)COC2 | < 5.00
* Cc1cc2c(cc1CC(=O)c1sccc1S(=O)(=O)Nc1onc(C)c1Cl)COC2 [Comparative Example 2, reference compound] | ≥ 6.00
* Cc1onc(NS(=O)(=O)c2cccnc2C#Cc2ccc3c(c2)COC3)c1C | < 5.00
* Cc1cc2c(cc1CC(=O)c1sccc1S(=O)(=O)Nc1onc(C)c1Cl)OCO2 [Comparative Example 1, sitaxentan, reference compound] | ≥ 6.00
* Cc1onc(NS(=O)(=O)c2cccnc2C#Cc2cc3c(cc2Cl)COC3)c1C | 5.00 to 6.00

Give me pIC50 for each of these compounds, listed below.
1. Cc1cc2c(cc1C#Cc1ncccc1S(=O)(=O)Nc1noc(C)c1C)C(=O)OC2
2. Cc1cc2c(cc1C#Cc1ncccc1S(=O)(=O)Nc1onc(C)c1C)C(C)(C)OC2

Outgoing:
< 5.00
< 5.00

====

# assay.notes: Metabolic stability in human liver microsome; further: tested at 0.99 µM
# Format: in vitro ADME
# conditions.used: after 30 minutes with NADPH
metric: Metabolic stability (human), residual rate of the unchanged form (%)
One number for each entry, in %.

Consider the following illustrative entries.
* Cc1cc2c(cc1C#Cc1ncccc1S(=O)(=O)Nc1onc(C)c1Cl)C(C)(C)OC2 | 28
* Cc1cc2c(cc1C#Cc1ncccc1S(=O)(=O)Nc1noc(C)c1C)C(C)(C)OC2 | 59
* COc1nc(C)cnc1NS(=O)(=O)c1cccnc1C#Cc1cc2c(cc1C)COC2(C)C | 66
* Cc1cc2c(cc1C#Cc1ncccc1S(=O)(=O)Nc1noc(C)c1C)COC2 | 47

Incoming: Tell me Metabolic stability (human), residual rate of the unchanged form reported for Cc1onc(NS(=O)(=O)c2cccnc2C#Cc2ccc3c(c2)COC3)c1C
Outgoing: 63
